- system: Guanine nucleotide-binding protein G(i) subunit alpha-1 (Homo sapiens) (UniProt P63096)
- Sequence (P63096 whole entry, looked up): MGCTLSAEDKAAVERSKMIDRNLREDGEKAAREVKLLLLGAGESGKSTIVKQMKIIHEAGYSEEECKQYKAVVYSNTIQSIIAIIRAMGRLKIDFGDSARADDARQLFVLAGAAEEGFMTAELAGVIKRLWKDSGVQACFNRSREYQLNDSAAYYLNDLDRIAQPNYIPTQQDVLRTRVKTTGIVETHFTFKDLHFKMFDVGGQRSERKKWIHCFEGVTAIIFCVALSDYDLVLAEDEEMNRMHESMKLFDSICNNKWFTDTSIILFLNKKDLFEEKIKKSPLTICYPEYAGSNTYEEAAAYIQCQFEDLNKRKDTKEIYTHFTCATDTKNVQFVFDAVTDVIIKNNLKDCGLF
- procedure_text: qHTS Assay for Inhibitors of RGS12 GoLoco Motif Activity (Green Fluorophore) (AID 879)
- protocol_conditions: Galphai1/FITC-RGS12 GoLoco peptide, fluorescence polarization; series mostly up to 57.1 µM
- Source text: Assay Overview: NIH Molecular Libraries Screening Centers Network [MLSCN] NIH Chemical Genomics Center [NCGC] MLSCN Grant: NS053754-01 Assay Provider: Siderovski, David P, University of North Carolina at Chapel Hill G-protein-coupled receptors (GPCRs) are major targets for drug discovery. […] Inhibitors of the binding are detected by a decrease in the fluorescence polarization (FP) of the fluorophore. […]
Calls of active or inactive are those of the source. The call rests on the fitted dose curve; in most records, active means well fitted curve in the direction sought with a large enough effect; inconclusive means small, poorly fitted or top-dose-only effect, or another doubt; inactive means no such curve, though single readings can be large or run the other way.
Possible outcomes: active, inactive

{"test_smiles": "CCn1nc(C(=O)O)c(=O)c2cc3c(cc21)OCO3", "group_label": "inactive"}
{"test_smiles": "Cc1scc2c1N(C(=O)CN1CCN(C)CC1)c1ccccc1NC2=O", "group_label": "inactive"}
{"test_smiles": "N[C@@H](COP(=O)(O)O)C(=O)O", "group_label": "inactive"}
{"test_smiles": "CCN(CC)CCNC(=O)c1ccc(NC(C)=O)cc1", "group_label": "inactive"}
{"test_smiles": "C[n+]1cc2c3c(ccc2c2ccc4cc5c(cc4c21)OCO5)OCO3", "group_label": "active"}
{"test_smiles": "CN(C)CCCN1c2ccccc2Sc2ccc(C(F)(F)F)cc21", "group_label": "inactive"}
{"test_smiles": "CN(C(=O)CCCOc1ccc2[nH]c(=O)ccc2c1)C1CCCCC1", "group_label": "inactive"}
{"test_smiles": "CC(C)[N+](C)(CCOC(=O)C1c2ccccc2Oc2ccccc21)C(C)C", "group_label": "inactive"}
{"test_smiles": "OCCN1CCN(CCCN2c3ccccc3C=Cc3ccccc32)CC1", "group_label": "inactive"}
{"test_smiles": "CCC(=O)c1ccc2c(c1)N(CCCN(C)C)c1ccccc1S2", "group_label": "inactive"}
{"test_smiles": "C[N+](C)(C)CCOC(=O)CCC(=O)OCC[N+](C)(C)C", "group_label": "inactive"}
{"test_smiles": "COCC(=O)O[C@]1(CCN(C)CCCc2nc3ccccc3[nH]2)CCc2cc(F)ccc2[C@@H]1C(C)C", "group_label": "inactive"}
{"test_smiles": "CCN(CC)CCNC(=O)c1cc(S(C)(=O)=O)ccc1OC", "group_label": "inactive"}
{"test_smiles": "COc1cc(C(=O)OCCCN2CCCN(CCCOC(=O)c3cc(OC)c(OC)c(OC)c3)CC2)cc(OC)c1OC", "group_label": "inactive"}
{"test_smiles": "COc1ccc(CN(CCN(C)C)c2ccccn2)cc1", "group_label": "inactive"}
{"test_smiles": "CN(C)CCCN1c2ccccc2Sc2ccccc21", "group_label": "inactive"}
{"test_smiles": "CN(C)CCOC(=O)COc1ccc(Cl)cc1", "group_label": "inactive"}
{"test_smiles": "C[C@]12C=CC(=O)C=C1CC[C@H]1[C@@H]3C[C@@H](O)[C@](O)(C(=O)CO)[C@@]3(C)C[C@H](O)[C@@]12F", "group_label": "inactive"}
{"test_smiles": "C(=C\\c1ccccc1)/CN1CCN(C(c2ccccc2)c2ccccc2)CC1", "group_label": "inactive"}
{"test_smiles": "CNCCCN1c2ccccc2CCc2ccccc21", "group_label": "inactive"}
{"test_smiles": "CCNC(=O)N1CCN(CCCC(c2ccc(F)cc2)c2ccc(F)cc2)CC1", "group_label": "inactive"}
{"test_smiles": "O=C(O)CN(CCOCCOCCN(CC(=O)O)CC(=O)O)CC(=O)O", "group_label": "inactive"}
{"test_smiles": "CN(C)C(=O)Oc1ccc[n+](C)c1", "group_label": "inactive"}
